For each record, write down the corresponding GI50.
- Test system: MDA-MB-231
- TEST DETAILS: Growth inhibition of human MDA-MB-231 cells after 92 hrs by CellTiter-Blue assay
- Format: functional
- CONDITIONS: MDA-MB-231, 92 h
The answer is to be given in µM; state only the numeric part.

Request: # return recorded GI50 for entry C[C@@H](/C=C\C(F)(F)F)Oc1cc(-c2cc(-c3cc(CN(C)C)cs3)cnc2N)ccc1C(N)=O
Response: 7.25

Request: # return recorded GI50 for entry CC(Oc1cc(-n2cnc3cc(OC4CCN(C)CC4)ccc32)ccc1C(N)=O)c1ccccc1C(F)(F)F (racemic)
Response: 4.95

Request: # return recorded GI50 for entry C[C@@H](Oc1cc(-c2cc(-c3cc(CN(C)C)cs3)cnc2N)ccc1C(N)=O)c1ccccc1C(F)(F)F
Response: 0.95

Request: # return recorded GI50 for entry C[C@H](/C=C\C(F)(F)F)Oc1cc(-c2cc(-c3cc(CN(C)C)cs3)cnc2N)ccc1C(N)=O
Response: 4.16

====

As a worked illustration, we turn to pIC50 data collected for Aurora kinase A (Homo sapiens, UniProt O14965).
In plain terms, pIC50 is the concentration in mol/L turned into minus its base-10 logarithm.

Request: # return recorded pIC50 for entry C[C@H](/C=C\C(F)(F)F)Oc1cc(-c2cc(-c3cc(CN(C)C)cs3)cnc2N)ccc1C(N)=O
Response: 5.31

Request: # return recorded pIC50 for entry C[C@@H](/C=C\C(F)(F)F)Oc1cc(-c2cc(-c3cc(CN(C)C)cs3)cnc2N)ccc1C(N)=O
Response: 5.63

Request: # return recorded pIC50 for entry CC(Oc1cc(-c2cc(-c3ccc(CN(C)C)cc3)cnc2N)ccc1C(N)=O)c1ccccc1C(F)(F)F (racemic)
Response: 5.10

Request: # return recorded pIC50 for entry C[C@@H](Oc1cc(-c2cc(-c3cc(CN(C)C)cs3)cnc2N)ccc1C(N)=O)c1ccccc1C(F)(F)F
Response: 5.06

====

MEASURED PARAMETER: IC50

Request: Supply IC50 measured with Cyclin-dependent kinase 2 (Homo sapiens) for CC(Oc1cc(-c2cc(-c3ccc(CN(C)C)cc3)cnc2N)ccc1C(N)=O)c1ccccc1C(F)(F)F (racemic) .
Response: 2.74 µM

Request: Supply IC50 measured with Cyclin-dependent kinase 2 (Homo sapiens) for C[C@@H](Oc1cc(-c2cc(-c3cc(CN(C)C)cs3)cnc2N)ccc1C(N)=O)c1ccccc1C(F)(F)F .
Response: 26.6 µM

Request: Supply IC50 measured with Cyclin-dependent kinase 2 (Homo sapiens) for C[C@H](/C=C\C(F)(F)F)Oc1cc(-c2cc(-c3cc(CN(C)C)cs3)cnc2N)ccc1C(N)=O .
Response: 4.57 µM

Request: Supply IC50 measured with Cyclin-dependent kinase 2 (Homo sapiens) for C[C@@H](/C=C\C(F)(F)F)Oc1cc(-c2cc(-c3cc(CN(C)C)cs3)cnc2N)ccc1C(N)=O .
Response: 0.53 µM

====

- TESTED ON: Serine/threonine-protein kinase Chk2 (Homo sapiens)
- Sequence (O96017 whole entry): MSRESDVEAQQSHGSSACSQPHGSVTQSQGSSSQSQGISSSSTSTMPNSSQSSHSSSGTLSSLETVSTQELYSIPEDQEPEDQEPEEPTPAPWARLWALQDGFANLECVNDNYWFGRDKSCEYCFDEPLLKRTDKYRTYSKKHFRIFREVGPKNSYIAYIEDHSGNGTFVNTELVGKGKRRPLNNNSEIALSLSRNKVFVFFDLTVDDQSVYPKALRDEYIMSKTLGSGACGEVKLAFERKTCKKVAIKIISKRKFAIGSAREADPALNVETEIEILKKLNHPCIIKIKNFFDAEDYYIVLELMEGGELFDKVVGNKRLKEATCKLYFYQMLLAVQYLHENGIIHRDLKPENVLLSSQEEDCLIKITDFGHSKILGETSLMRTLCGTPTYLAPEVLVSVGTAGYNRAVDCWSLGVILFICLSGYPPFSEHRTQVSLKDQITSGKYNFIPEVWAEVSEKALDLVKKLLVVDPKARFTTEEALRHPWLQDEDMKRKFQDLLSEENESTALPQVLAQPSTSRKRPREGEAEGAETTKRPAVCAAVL
MEASURED PARAMETER: pIC50
In plain terms, pIC50 is the concentration in mol/L turned into minus its base-10 logarithm.

Request: # return recorded pIC50 for entry C[C@H](/C=C\C(F)(F)F)Oc1cc(-c2cc(-c3cc(CN(C)C)cs3)cnc2N)ccc1C(N)=O
Response: 5.70

====

- TESTED ON: Glycogen synthase kinase-3 beta (Homo sapiens, UniProt P49841)
MEASURED PARAMETER: IC50 (nM)
The answer is to be given in nM; state only the numeric part.

Request: # return recorded IC50 for entry C[C@H](/C=C\C(F)(F)F)Oc1cc(-c2cc(-c3cc(CN(C)C)cs3)cnc2N)ccc1C(N)=O
Response: 70

====

For each record, write down the corresponding IC50.
The answer is to be given in µM; state only the numeric part.

Request: Supply IC50 measured with Serine/threonine-protein kinase PLK1 (Homo sapiens) for CC(Oc1cc(-c2cc(-c3cccc(CN(C)C)c3)cnc2N)ccc1C(N)=O)c1ccccc1C(F)(F)F (racemic) .
Sequence (P53350 whole entry): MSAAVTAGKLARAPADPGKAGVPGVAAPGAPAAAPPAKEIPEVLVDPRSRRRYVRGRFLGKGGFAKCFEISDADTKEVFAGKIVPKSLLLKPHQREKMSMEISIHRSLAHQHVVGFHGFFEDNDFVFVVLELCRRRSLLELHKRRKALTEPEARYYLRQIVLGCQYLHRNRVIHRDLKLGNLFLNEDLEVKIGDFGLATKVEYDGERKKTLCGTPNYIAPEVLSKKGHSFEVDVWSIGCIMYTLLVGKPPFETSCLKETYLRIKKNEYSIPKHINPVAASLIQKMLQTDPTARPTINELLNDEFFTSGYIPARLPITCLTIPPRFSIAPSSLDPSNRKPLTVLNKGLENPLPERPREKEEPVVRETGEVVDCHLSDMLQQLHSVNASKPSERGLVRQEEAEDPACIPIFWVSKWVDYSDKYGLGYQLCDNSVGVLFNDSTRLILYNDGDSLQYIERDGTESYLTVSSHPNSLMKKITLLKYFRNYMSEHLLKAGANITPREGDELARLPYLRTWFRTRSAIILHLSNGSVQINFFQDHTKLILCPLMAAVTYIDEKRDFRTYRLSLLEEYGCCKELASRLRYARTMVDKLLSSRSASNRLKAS
Response: 3.29

Request: Supply IC50 measured with Serine/threonine-protein kinase PLK1 (Homo sapiens) for C[C@@H](Oc1cc(-c2cc(-c3cc(CN(C)C)cs3)cnc2N)ccc1C(N)=O)c1ccccc1C(F)(F)F .
Response: 0.82

Request: Supply IC50 measured with Serine/threonine-protein kinase PLK1 (Homo sapiens) for CC(Oc1cc(-c2nc(-c3cccc(CN(C)C)c3)cnc2N)ccc1C(N)=O)c1ccccc1C(F)(F)F (racemic) .
Response: 12.1

Request: Supply IC50 measured with Serine/threonine-protein kinase PLK1 (Homo sapiens) for C[C@H](/C=C\C(F)(F)F)Oc1cc(-c2cc(-c3cc(CN(C)C)cs3)cnc2N)ccc1C(N)=O .
Response: 5.82

Request: Supply IC50 measured with Serine/threonine-protein kinase PLK1 (Homo sapiens) for CC(Oc1cc(-c2nc(-c3ccc(CN(C)C)cc3)cnc2N)ccc1C(N)=O)c1ccccc1C(F)(F)F (racemic) .
Response: 3.9

Request: Supply IC50 measured with Serine/threonine-protein kinase PLK1 (Homo sapiens) for CC(Oc1cc(-c2cc(-c3ccc(CN(C)C)cc3)cnc2N)ccc1C(N)=O)c1ccccc1C(F)(F)F (racemic) .
Response: 1.56

Request: Supply IC50 measured with Serine/threonine-protein kinase PLK1 (Homo sapiens) for CC(Oc1cc(-c2cc(-c3ccc(CN(C)C)s3)cnc2N)ccc1C(N)=O)c1ccccc1C(F)(F)F (racemic) .
Response: 0.5

Request: Supply IC50 measured with Serine/threonine-protein kinase PLK1 (Homo sapiens) for CC(/C=C\C(F)(F)F)Oc1cc(-c2cc(-c3cc(CN(C)C)cs3)cnc2N)ccc1C(N)=O (racemic) .
Response: 8.41

Request: Supply IC50 measured with Serine/threonine-protein kinase PLK1 (Homo sapiens) for CC(Oc1cc(-c2cc(-c3cc(CN(C)C)cs3)cnc2N)ccc1C(N)=O)c1ccccc1C(F)(F)F (racemic) .
Response: 1.32

====

MEASURED PARAMETER: pIC50
In plain terms, pIC50 is the concentration in mol/L turned into minus its base-10 logarithm.

Request: Supply pIC50 measured with Proto-oncogene tyrosine-protein kinase Src (Homo sapiens) for C[C@H](/C=C\C(F)(F)F)Oc1cc(-c2cc(-c3cc(CN(C)C)cs3)cnc2N)ccc1C(N)=O .
Sequence (P12931 2-536 limits assumed): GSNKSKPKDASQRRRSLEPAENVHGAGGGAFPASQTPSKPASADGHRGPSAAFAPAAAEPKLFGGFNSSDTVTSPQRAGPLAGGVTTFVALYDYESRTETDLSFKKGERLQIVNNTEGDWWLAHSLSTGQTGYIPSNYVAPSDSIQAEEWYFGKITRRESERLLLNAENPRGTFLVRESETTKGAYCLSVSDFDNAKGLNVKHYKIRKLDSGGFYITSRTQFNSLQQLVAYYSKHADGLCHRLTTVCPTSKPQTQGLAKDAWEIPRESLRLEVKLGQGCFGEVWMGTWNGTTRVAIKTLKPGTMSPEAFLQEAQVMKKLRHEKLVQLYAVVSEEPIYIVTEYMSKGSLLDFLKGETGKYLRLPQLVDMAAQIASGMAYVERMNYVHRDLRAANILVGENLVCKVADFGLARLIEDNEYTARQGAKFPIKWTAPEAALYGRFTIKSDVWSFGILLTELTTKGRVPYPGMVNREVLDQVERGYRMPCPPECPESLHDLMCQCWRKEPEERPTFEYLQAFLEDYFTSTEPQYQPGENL
Response: 6.08

====

MEASURED PARAMETER: IC50 (nM)
The answer is to be given in nM; state only the numeric part.

Request: Supply IC50 measured with UniProtKB P00519 for C[C@H](/C=C\C(F)(F)F)Oc1cc(-c2cc(-c3cc(CN(C)C)cs3)cnc2N)ccc1C(N)=O .
Sequence (P00519 whole entry): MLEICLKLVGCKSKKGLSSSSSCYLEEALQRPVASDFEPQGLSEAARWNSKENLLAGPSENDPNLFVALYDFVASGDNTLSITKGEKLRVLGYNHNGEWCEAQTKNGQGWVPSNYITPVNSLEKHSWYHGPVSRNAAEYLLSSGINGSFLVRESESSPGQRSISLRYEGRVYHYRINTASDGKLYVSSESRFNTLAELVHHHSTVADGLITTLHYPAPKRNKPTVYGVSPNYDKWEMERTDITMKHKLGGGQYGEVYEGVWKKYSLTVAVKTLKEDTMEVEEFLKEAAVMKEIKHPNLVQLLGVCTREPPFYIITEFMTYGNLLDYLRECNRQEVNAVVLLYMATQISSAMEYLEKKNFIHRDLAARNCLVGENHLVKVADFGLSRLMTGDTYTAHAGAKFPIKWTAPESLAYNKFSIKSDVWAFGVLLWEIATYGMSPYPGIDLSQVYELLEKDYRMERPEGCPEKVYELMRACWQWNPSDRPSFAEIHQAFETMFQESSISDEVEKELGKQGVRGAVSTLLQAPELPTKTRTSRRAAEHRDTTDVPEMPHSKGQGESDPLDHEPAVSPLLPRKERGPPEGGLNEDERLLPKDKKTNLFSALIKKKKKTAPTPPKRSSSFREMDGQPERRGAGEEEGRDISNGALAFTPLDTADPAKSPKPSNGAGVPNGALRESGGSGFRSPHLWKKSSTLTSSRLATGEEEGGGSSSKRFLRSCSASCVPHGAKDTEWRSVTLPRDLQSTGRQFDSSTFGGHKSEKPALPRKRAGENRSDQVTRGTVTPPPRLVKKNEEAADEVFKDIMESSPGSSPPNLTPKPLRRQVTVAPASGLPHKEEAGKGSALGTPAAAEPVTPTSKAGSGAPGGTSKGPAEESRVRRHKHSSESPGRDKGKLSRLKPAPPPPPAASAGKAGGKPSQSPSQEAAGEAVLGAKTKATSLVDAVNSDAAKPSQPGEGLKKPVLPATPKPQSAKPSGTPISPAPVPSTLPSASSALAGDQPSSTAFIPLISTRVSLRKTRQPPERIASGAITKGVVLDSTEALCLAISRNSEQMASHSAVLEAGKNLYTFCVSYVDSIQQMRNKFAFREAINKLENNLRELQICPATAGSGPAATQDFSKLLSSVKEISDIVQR
Response: 1110

====

- TESTED ON: Serine/threonine-protein kinase Nek2 (Homo sapiens, UniProt P51955)
- Sequence (P51955 whole entry): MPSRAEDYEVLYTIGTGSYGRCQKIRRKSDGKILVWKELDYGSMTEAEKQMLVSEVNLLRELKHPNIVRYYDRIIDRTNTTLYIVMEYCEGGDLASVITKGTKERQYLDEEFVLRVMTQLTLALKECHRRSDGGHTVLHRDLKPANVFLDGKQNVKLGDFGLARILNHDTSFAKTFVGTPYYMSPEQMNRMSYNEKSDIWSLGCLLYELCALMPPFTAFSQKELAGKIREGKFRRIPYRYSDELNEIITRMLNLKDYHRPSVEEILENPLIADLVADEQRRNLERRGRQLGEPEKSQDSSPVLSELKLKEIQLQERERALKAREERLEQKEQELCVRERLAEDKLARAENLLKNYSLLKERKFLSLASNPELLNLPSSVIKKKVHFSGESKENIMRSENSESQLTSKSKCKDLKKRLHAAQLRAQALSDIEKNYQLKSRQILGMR
Lab note: compare IC50 with 2000 nM, writing MET if less and NOT MET if equal or more.

Request: Answer whether the molecule CC(Oc1cc(-c2nc(-c3cccc(CN(C)C)c3)cnc2N)ccc1C(N)=O)c1ccccc1C(F)(F)F (racemic) has IC50 strictly less than 2000 nM
Response: NOT MET

Request: Answer whether the molecule CC(Oc1cc(-c2cc(-c3ccc(CN4CCOCC4)s3)cnc2N)ccc1C(N)=O)c1ccccc1C(F)(F)F (racemic) has IC50 strictly less than 2000 nM
Response: MET

Request: Answer whether the molecule Cc1cc(CN(C)C)sc1-c1cnc(N)c(-c2ccc(C(N)=O)c(OC(C)c3ccccc3C(F)(F)F)c2)c1 (racemic) has IC50 strictly less than 2000 nM
Response: MET

Request: Answer whether the molecule CC(Oc1cc(-c2cc(-c3ccc(CN4CCCCC4)s3)cnc2N)ccc1C(N)=O)c1ccccc1C(F)(F)F (racemic) has IC50 strictly less than 2000 nM
Response: MET

Request: Answer whether the molecule CC(Oc1cc(-c2cc(-c3ccc(CN(C)C)cc3)cnc2N)ccc1C(N)=O)c1ccccc1C(F)(F)F (racemic) has IC50 strictly less than 2000 nM
Response: MET

Request: Answer whether the molecule CC(Oc1cc(-c2cc(-c3cccs3)cnc2N)ccc1C(N)=O)c1ccccc1C(F)(F)F (racemic) has IC50 strictly less than 2000 nM
Response: NOT MET

Request: Answer whether the molecule CC(Oc1cc(-c2cc(-c3cccc(CN(C)C)c3)cnc2N)ccc1C(N)=O)c1ccccc1C(F)(F)F (racemic) has IC50 strictly less than 2000 nM
Response: MET

Request: Answer whether the molecule C[C@@H](/C=C\C(F)(F)F)Oc1cc(-c2cc(-c3cc(CN(C)C)cs3)cnc2N)ccc1C(N)=O has IC50 strictly less than 2000 nM
Response: MET

Request: Answer whether the molecule COc1cc(-c2cc(-c3cc(CN(C)C)cs3)cnc2N)ccc1C(N)=O has IC50 strictly less than 2000 nM
Response: NOT MET

====

- TESTED ON: Hepatocyte growth factor receptor (Homo sapiens, UniProt P08581)
- Sequence (P08581 whole entry): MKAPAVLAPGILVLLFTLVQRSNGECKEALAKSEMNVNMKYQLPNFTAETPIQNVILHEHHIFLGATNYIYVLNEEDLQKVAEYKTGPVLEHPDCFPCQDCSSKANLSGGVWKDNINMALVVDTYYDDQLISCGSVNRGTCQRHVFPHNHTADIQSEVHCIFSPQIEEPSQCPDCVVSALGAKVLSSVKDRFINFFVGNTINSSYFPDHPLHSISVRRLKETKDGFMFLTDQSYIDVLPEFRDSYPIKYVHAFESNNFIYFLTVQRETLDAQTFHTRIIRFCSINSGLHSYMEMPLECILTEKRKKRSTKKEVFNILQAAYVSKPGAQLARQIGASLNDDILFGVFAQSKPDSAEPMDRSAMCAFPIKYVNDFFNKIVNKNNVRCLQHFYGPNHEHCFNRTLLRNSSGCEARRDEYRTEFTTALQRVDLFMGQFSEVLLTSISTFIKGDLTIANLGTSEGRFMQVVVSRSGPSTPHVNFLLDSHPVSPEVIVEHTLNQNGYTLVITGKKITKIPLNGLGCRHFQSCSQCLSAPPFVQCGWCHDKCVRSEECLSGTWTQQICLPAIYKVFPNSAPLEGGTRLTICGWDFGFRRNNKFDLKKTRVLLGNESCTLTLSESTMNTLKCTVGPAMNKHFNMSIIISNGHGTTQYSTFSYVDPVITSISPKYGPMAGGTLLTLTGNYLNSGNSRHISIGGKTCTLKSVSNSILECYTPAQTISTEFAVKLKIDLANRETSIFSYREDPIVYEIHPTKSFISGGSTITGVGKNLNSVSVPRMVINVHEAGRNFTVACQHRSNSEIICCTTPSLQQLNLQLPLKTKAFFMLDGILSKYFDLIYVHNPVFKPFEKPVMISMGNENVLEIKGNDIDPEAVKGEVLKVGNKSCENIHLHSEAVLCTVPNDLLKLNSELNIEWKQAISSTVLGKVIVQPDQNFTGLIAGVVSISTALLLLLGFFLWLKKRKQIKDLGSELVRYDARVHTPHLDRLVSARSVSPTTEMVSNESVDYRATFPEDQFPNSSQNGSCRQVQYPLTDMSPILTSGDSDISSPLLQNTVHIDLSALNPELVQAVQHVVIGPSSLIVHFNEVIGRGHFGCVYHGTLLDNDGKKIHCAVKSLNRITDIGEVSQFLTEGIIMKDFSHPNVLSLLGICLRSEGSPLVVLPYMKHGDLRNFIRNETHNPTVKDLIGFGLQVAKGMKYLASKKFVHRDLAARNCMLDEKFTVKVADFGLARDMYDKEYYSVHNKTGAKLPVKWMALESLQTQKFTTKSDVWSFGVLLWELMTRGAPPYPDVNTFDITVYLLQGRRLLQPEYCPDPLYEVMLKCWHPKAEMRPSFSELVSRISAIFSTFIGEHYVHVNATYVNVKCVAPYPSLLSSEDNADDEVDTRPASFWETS
MEASURED PARAMETER: IC50 (nM)
The answer is to be given in nM; state only the numeric part.

Request: # return recorded IC50 for entry C[C@H](/C=C\C(F)(F)F)Oc1cc(-c2cc(-c3cc(CN(C)C)cs3)cnc2N)ccc1C(N)=O
Response: 1170
